assay: Example 7: PK analysis, serum concentration after one vs two 70 mg nasal doses; format: in vivo, human; conditions: human, serum, other: nasal, two 70 mg nasal doses, second approximately 10 minutes after first; Time 15; read-out: serum concentration, Max
Value kind: concentration at 15 min (ng/mL)
The response must be a number in ng/mL with no trailing unit.

Query: Return reported concentration at 15 min; argument: COC(=O)c1cccc(CCN(C)CCCC(C#N)(c2ccc(OC)c(OC)c2)C(C)C)c1 (stereo not shown)
Reply: 317

* * *

assay: Example 7: PK analysis, serum concentration after one vs two 70 mg nasal doses; type: in vivo, human; details: one 70 mg nasal dose; Time 370
Value kind: serum concentration, Max
Answer with the value and then the unit.

Query: Return reported serum concentration, Max; argument: COC(=O)c1cccc(CCN(C)CCCC(C#N)(c2ccc(OC)c(OC)c2)C(C)C)c1 (stereo not shown)
Reply: 6.08 ng/mL

* * *

assay: Example 7: PK analysis, serum concentration after one vs two 70 mg nasal doses; type: in vivo, human; conditions: human, serum, other: nasal, two 70 mg nasal doses, second approximately 10 minutes after first; Time 15; read-out: serum concentration, Mean
Value kind: concentration at 15 min (ng/mL)
The response must be a number in ng/mL with no trailing unit.

Query: Return reported concentration at 15 min; argument: COC(=O)c1cccc(CCN(C)CCCC(C#N)(c2ccc(OC)c(OC)c2)C(C)C)c1 (stereo not shown) [compound I]
Reply: 110

* * *

experiment: Example 7: PK analysis, serum concentration after one vs two 70 mg nasal doses; type: in vivo, human; details: human, serum, other: nasal, two 70 mg nasal doses, second approximately 10 minutes after first; Time 13; read-out: serum concentration, Mean
Value kind: concentration at 13 min (ng/mL)
The response must be a number in ng/mL with no trailing unit.

Query: Return reported concentration at 13 min; argument: COC(=O)c1cccc(CCN(C)CCCC(C#N)(c2ccc(OC)c(OC)c2)C(C)C)c1 (stereo not shown)
Reply: 115

* * *

experiment: Example 7: PK analysis, serum concentration after one vs two 70 mg nasal doses; type: in vivo, human; conditions: one 70 mg nasal dose; Time 0.5
Value kind: serum concentration, Max (ng/mL)
The response must be a number in ng/mL with no trailing unit.

Query: Return reported serum concentration, Max; argument: COC(=O)c1cccc(CCN(C)CCCC(C#N)(c2ccc(OC)c(OC)c2)C(C)C)c1 (stereo not shown)
Reply: 0
